- experiment: Nonclinical pharmacokinetics in rats
- Assay type: in vivo
- condition_parameters: rat, in vivo, read-out: terminal half-life
attribute_measured: half-life

## Input For O=C1CC[C@H](N2Cc3cc(C(=O)N[C@H](c4ncccc4Cl)C(F)(F)F)ccc3C2=O)C(=O)N1 [Compound 1] , what is its reported half-life?
## Output 90 to 102 min

---

- experiment: GLP repeat-dose toxicity and toxicokinetics study in monkeys
- Type: in vivo, cynomolgus monkeys
- condition_parameters: both sexes, cynomolgus monkey, plasma, po; 0.03 mg/kg, Regimen 1, sexes combined
attribute_measured: AUC
The answer consists of two parts: a number and, after it, its unit.

## Input Consider the molecule shown here: O=C1CC[C@H](N2Cc3cc(C(=O)N[C@H](c4ncccc4Cl)C(F)(F)F)ccc3C2=O)C(=O)N1 What is its recorded AUC?
## Output 51.4 ng·h/mL
